ASSAY_SUMMARY: RPL19A-GFP modulators, yeast TOR pathway, confirmation, cell-based, S. cerevisiae, flow cytometry, cherry picks, mother/daughter gates (AID 2270)
CONDITION_SUMMARY: S. cerevisiae RPL19A-GFP strain, 3 h, measured here: mother cell gate, at 10 µM, stronger effect = lower value, 100 = same GFP as DMSO wells

| MOLECULE | GFP response vs DMSO (%) |
| --- | --- |
| CC1(C)CC(=O)C2=C(C1)OC1=C(C(=O)CC(C)(C)C1)C2c1ccc(O)cc1O | 99.8 |
| Cc1cc(C(=O)Nc2nc(-c3ccccn3)cs2)ccc1[N+](=O)[O-] | 97.2 |
| Cc1nc(SC2CC(=O)N(c3ccccc3)C2=O)nc2c1CCCC2 (stereo not given) | 95.8 |
| N#C/C(=C\c1c(N(Cc2ccccc2)Cc2ccccc2)nc2ccccn2c1=O)C(N)=O | 98.2 |
| CNC(=O)/C(C#N)=C/c1c(N(Cc2ccccc2)Cc2ccccc2)nc2c(C)cccn2c1=O | 97.8 |
| O=S(=O)(c1ccc(NC(=S)N/N=C/c2cccc(Oc3ccccc3)c2)cc1)N1CCOCC1 | 97.3 |
| COC(=O)c1cccc(-n2c(CCC(=O)O)ccc2-c2cccs2)c1 | 100 |
| CCn1c(=O)c(C(=O)Nc2nc3ccccc3[nH]2)c(O)c2ccccc21 | 67 |
| CCN(Cc1ccccc1)S(=O)(=O)c1ccc(C(=O)Nc2nnc(C)o2)cc1 | 98.6 |
| N#C/C(=C\c1c(N2CCN(c3ccccc3)CC2)nc2ccccn2c1=O)C(N)=O | 99.3 |
